Biological target: T1, IL-11Rα as used in the Biacore kinetics of Example 14 (UniProt Q14626 23-363, limits assumed)
T1 sequence (looked up): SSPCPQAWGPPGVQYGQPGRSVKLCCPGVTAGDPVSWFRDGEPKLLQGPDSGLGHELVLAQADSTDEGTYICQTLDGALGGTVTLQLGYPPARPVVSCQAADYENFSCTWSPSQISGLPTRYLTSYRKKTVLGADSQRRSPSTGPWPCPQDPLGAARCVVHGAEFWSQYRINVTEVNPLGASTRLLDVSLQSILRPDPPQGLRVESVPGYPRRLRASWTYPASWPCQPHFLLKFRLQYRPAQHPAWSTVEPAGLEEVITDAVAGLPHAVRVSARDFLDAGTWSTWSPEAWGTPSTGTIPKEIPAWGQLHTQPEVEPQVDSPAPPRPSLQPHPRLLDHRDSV
Assay: SPR (Biacore T200), multi-cycle kinetics, 25 C, HBS-P+ pH 7.4 with 0.1% BSA
In this section we review reported kon values for a set of binders.
MEASUREMENT_TYPE: kon (M⁻¹ s⁻¹)

>  <BINDER>
Humanised BSO-9A7 variant VH4/VL4 (antibody, V domains shown, Variable domains only; also called printed once as VH4/VH4) VH: QVQLVQSGAEVKKPGASVKVSCKASGYTFTNYWMHWLRQRPGQGLEWIGNIGPSDSKTHYNQKFKDRVTMTVDKSTSTAYMELSSLRSEDTAVYYCARGDYVLFTYWGQGTLVTVSS VL: DIVLTQSPATLSLSPGERATLSCRASQSISNNLHWYQQKPGQAPRLLIKYASQSISGIPARFSGSGSGTDFTLTISSLEPEDFAVYYCQQSYSWPLTFGQGTKLEIK

>  <UNITS>
M⁻¹ s⁻¹

>  <MEAS_VALUE>
141000

$$$$
>  <BINDER>
Humanised BSO-9A7 variant VH4/VL2 (antibody, V domains shown, Variable domains only) VH: QVQLVQSGAEVKKPGASVKVSCKASGYTFTNYWMHWLRQRPGQGLEWIGNIGPSDSKTHYNQKFKDRVTMTVDKSTSTAYMELSSLRSEDTAVYYCARGDYVLFTYWGQGTLVTVSS VL: DIVLTQSPATLSLSPGERATLSCRASQSISNNLHWYQQKSGQAPRLLIKYASQSISGIPARFSGSGSGTDFTLTISSLETEDFAVYFCQQSYSWPLTFGQGTKLEIK

>  <UNITS>
M⁻¹ s⁻¹

>  <MEAS_VALUE>
164000

$$$$
